System under test: T1, PBP2 (wild type), fused to mKO or to mCherry (E. coli, UniProt P0AD65 1-633)
T1 construct: PBP2, peptidoglycan transpeptidase of the E. coli elongasome, wild type; mKO-PBP2 in all others; also called mKO-PBP2^WT; mKO-PBP2; source: E. coli LMC500, expressed from plasmid (15 uM IPTG), in fixed cells; not shown: mKO (donor construct, pWA004) or mCherry (acceptor construct), N-terminal, kept
T1 sequence (looked up): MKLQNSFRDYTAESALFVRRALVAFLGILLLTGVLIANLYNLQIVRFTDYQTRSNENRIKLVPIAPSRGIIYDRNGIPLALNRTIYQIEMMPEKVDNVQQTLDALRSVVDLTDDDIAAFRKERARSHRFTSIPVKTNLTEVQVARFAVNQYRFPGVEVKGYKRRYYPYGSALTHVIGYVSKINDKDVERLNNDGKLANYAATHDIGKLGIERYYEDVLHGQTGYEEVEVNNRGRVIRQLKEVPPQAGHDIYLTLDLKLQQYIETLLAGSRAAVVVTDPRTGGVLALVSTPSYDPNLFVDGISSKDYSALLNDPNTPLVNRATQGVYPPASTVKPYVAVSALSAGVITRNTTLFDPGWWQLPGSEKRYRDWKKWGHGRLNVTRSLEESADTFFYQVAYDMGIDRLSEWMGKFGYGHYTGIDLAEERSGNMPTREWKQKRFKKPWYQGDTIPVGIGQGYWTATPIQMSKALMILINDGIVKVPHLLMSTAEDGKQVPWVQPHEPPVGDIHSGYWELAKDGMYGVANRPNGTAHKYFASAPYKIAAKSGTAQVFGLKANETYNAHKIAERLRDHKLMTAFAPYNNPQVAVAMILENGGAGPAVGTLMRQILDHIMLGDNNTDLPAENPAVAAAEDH
Measurement protocol: FRET or BRET; two-plasmid spectral FRET in E. coli LMC500 cells; mCherry fusion as acceptor, mKO fusion as donor; Gb4 medium, steady state at 28 C, 15 uM IPTG for two mass doublings, FAGA-fixed; acceptor FRET efficiency (EfA) by spectral unmixing
Protocol conditions: partners not purified
Endpoint name: EfA (acceptor FRET efficiency) (%)
The reply should be a number in %, with the unit left off.

Ask | Returns the measured EfA (acceptor FRET efficiency) for the input binder. Input: mCh-MreC (natural protein, E. coli, UniProt P16926 1-367, looked up) MKPIFSRGPSLQIRLILAVLVALGIIIADSRLGTFSQIRTYMDTAVSPFYFVSNAPRELLDGVSQTLASRDQLELENRALRQELLLKNSELLMLGQYKQENARLRELLGSPLRQDEQKMVTQVISTVNDPYSDQVVIDKGSVNGVYEGQPVISDKGVVGQVVAVAKLTSRVLLICDATHALPIQVLRNDIRVIAAGNGCTDDLQLEHLPANTDIRVGDVLVTSGLGGRFPEGYPVAVVSSVKLDTQRAYTVIQARPTAGLQRLRYLLLLWGADRNGANPMTPEEVHRVANERLMQMMPQVLPSPDAMGPKLPEPATGIAQPTPQQPATGNAATAPAAPTQPAANRSPQRATPPQSGAQPPARAPGGQ
Reply | 5.1
